Test: inhibitors of the yeast RAM network, pilot screen, dse1pr::URA3 reporter, 5-FOA selection (AID 869);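 also: 0% = DMSO wells with no growth and 100% = 10 µM 1-NA-PP1 with full growth; RAM network block rescues cells from 5-FOA so hits raise OD615 growth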
Settings: S. cerevisiae dse1pr::URA3 5-FOA growth, OD615, 2 d; at 10 µM; stronger effect = higher value; strain carries analog-sensitive mutant Cbk1 kinase
Let's look at some compounds and their measured inhibition.
Entry rule: numbers only, all in %.

COMPOUND	EXPERIMENTAL ENDPOINT	SCALE UNIT	DATA VALUE
Cc1nnc(SCCC(C)C)[nH]c1=O	inhibition	%	0.745
O=c1cc(CO)oc(C(Nc2ccccn2)c2ccccc2F)c1O (stereo not drawn)	inhibition	%	0.95
O=C(C1CC1)N1CCc2cc(Br)cc(S(=O)(=O)NCCCN3CCCC3)c21	inhibition	%	0.08
O=C1CC(c2ccccc2)C(C(=O)Nc2ccccc2F)N1 (stereo not drawn)	inhibition	%	0.81
O=C1c2oc3ccccc3c(=O)c2C(c2cccc(O)c2)N1CCCN1CCOCC1 (stereo not drawn)	inhibition	%	0.37

Now look at this entry.
Problem: Need inhibition, item Cc1ccc(C(=O)c2ccccc2C(=O)O)c(O)c1
Solution: 0.835

====

Assay: OD615 S. cerevisiae growth inhibition, permissive medium, pilot counter-assay, permissive growth control for S. cerevisiae lifespan shortening project (AID 705)
Details: OD615, 24 h, at 10 µM, stronger effect = higher value
Let's look at some compounds and their measured growth inhibition.
Entry rule: numbers only, all in %.

COMPOUND	SCALE UNIT	DATA VALUE
CCOC(=O)C1=C(C)NC(=O)NC1c1ccc(C)o1 (configuration not stated)	%	8.61

Problem: Need growth inhibition, item CC1(C(=O)NC2CCCCC2)CCC(=O)N1Cc1cccnc1 (configuration not stated)
Solution: -8.59

Problem: Need growth inhibition, item CCOC(=O)Nc1ccc2c(c1)N(C(=O)N(CC)CC)c1ccccc1CC2
Solution: -8.36

Problem: Need growth inhibition, item CCN1CCN(CC(=O)NC2CCCCC2)C(=O)C1=O
Solution: -14.6

Problem: Need growth inhibition, item COc1ccccc1-c1nnc(SCC(=O)N2CCOCC2)o1
Solution: -12.5

Problem: Need growth inhibition, item O=C1CCCN1CC(CN1CCOCC1)Sc1nnnn1-c1ccccc1 (configuration not stated)
Solution: -0.73

Problem: Need growth inhibition, item CCN1C(=O)N(CC)C(O)(c2ccccc2)C1(O)c1ccccc1 (configuration not stated)
Solution: -12.7

Problem: Need growth inhibition, item Cc1cc(C)cc(N(CC(=O)N2CCn3c2nc2ccccc23)S(=O)(=O)c2c(C)noc2C)c1
Solution: -5.97

Problem: Need growth inhibition, item CCOC1OC2C(CO)OC(n3cnc4c(N)ncnc43)C2O1 (configuration not stated)
Solution: 6.12

Problem: Need growth inhibition, item CCn1c(C(C)NC(C)=O)nc2ccccc21 (configuration not stated)
Solution: -13.6

Problem: Need growth inhibition, item Cc1sc(NC(=O)c2cccs2)c(C(N)=O)c1C
Solution: -6.89

Problem: Need growth inhibition, item CCCc1cc(C(=O)Nc2sc(C)c(CC)c2C#N)no1
Solution: -6.42

Problem: Need growth inhibition, item Cc1nn2cc(-c3ccccc3)nc2s1
Solution: -5.37

Problem: Need growth inhibition, item O=C1c2ccccc2C(=O)N1CCC(=O)N1CCCc2ccccc21
Solution: -19.9

Problem: Need growth inhibition, item CCCCS(=O)(=O)/C=C\C=C/S(=O)(=O)CCCC
Solution: 14.9

Problem: Need growth inhibition, item C=CCSc1nc2ccccc2c(=O)[nH]1
Solution: -16.1

Problem: Need growth inhibition, item CC(=O)c1ccc(N2CCN(C(=O)c3cc4c(-c5ccccc5F)nn(C)c4s3)CC2)cc1
Solution: 3.9

Problem: Need growth inhibition, item O=C(Nc1ccc2c(c1)OCO2)C1CCCN1C(=O)OCc1ccccc1 (configuration not stated)
Solution: -17.8

Problem: Need growth inhibition, item Cc1cc(N2CCOCC2)nc(NCc2ccccc2)n1
Solution: 3.04

Problem: Need growth inhibition, item COc1ccc(CNC(=O)C2CCN(S(=O)(=O)c3cccc4cccnc34)CC2)cc1
Solution: -9.14

Problem: Need growth inhibition, item CC(=O)N(c1ccccc1)C1SC(=O)N(c2ccccc2)C1=O (configuration not stated)
Solution: -15.9

Problem: Need growth inhibition, item CCOc1ccccc1NC(=O)CSc1nc2c(c(=O)n1C)SC(C)C2 (configuration not stated)
Solution: -8.29

Problem: Need growth inhibition, item O=C(Sc1nnc(-c2ccccc2)o1)N1c2ccccc2Sc2ccccc21
Solution: 15.4

Problem: Need growth inhibition, item COc1cc(OC)c(C2Oc3nc(SC)nnc3-c3ccccc3N2C(C)=O)cc1OC (configuration not stated)
Solution: 4.06

Problem: Need growth inhibition, item CCOC(=O)C(C)n1cnc2sc3c(c2c1=O)CCC3 (configuration not stated)
Solution: -8.5

====

Assay: OD615 S. cerevisiae growth inhibition, permissive medium, pilot counter-assay, permissive growth control for S. cerevisiae lifespan shortening project (AID 705)
Conditions: OD615, 24 h, at 10 µM, stronger effect = higher value
EXPERIMENTAL ENDPOINT: growth inhibition (%)
Entry rule: numbers only, all in %.

Some compounds with recorded growth inhibition:
COMPOUND	growth inhibition (%)
Cc1[nH]c2ccccc2c1SCCN	-9.76
COc1ccccc1N(CC(=O)Nc1ccccc1C)S(C)(=O)=O	-5.63
CN1CCN(CCCNC(=O)c2ccc3c(c2)N(Cc2ccccc2)CCS3)CC1	-2.21
CC1CCCC(C)N1CCCNC(=O)c1cc2c(=O)n(C)c3ccccc3c2n1C (stereo not given)	-11.5
CCCS(=O)(=O)c1nc(S(=O)(=O)c2ccc(C)cc2)c(NCCCN2CCOCC2)s1	0.84
CCOc1ccc(C(=O)Nc2cc(C)c3c(=O)oc4ccccc4c3n2)cc1	-0.2

Problem: Need growth inhibition, item O=C(O)C1C2C=CC(C2)C1C(=O)OCC1CCCO1 (stereo not given)
Solution: -6.31

Problem: Need growth inhibition, item COc1ccc(C)cc1S(=O)(=O)N1CCN(S(=O)(=O)c2cc(C)ccc2OC)C(C)C1 (stereo not given)
Solution: -8.75

Problem: Need growth inhibition, item COc1cccc(-c2nc(C(N)=O)c3[nH]c(=O)n(-c4ccccc4)c3n2)c1OC
Solution: -8.87

Problem: Need growth inhibition, item COC(=O)CSc1nc2ccccc2o1
Solution: -7.46

Problem: Need growth inhibition, item COc1ccccc1OCC(=O)NC1CCCCCC1
Solution: -5.33

Problem: Need growth inhibition, item Cc1cc(C(F)(F)F)nc(NCc2ccc(F)cc2)n1
Solution: -1.39

Problem: Need growth inhibition, item CCCCNC(=O)Nc1ccc(Br)cn1
Solution: -8.62

====

Experiment: OD615 S. cerevisiae growth inhibition, permissive medium, pilot counter-assay, permissive growth control for S. cerevisiae lifespan shortening project (AID 705)
Conditions: OD615, 24 h, at 10 µM, stronger effect = higher value
The source made the active and inactive calls.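 How the source made its calls: active means growth inhibition above 25% in both replicates, a cutoff set 3 SD above the mean; inconclusive means above 25% in only one replicate; inactive means the rest.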
Let's look at some compounds and their measured growth inhibition.

Some compounds with recorded growth inhibition:
COMPOUND	growth inhibition
O=C(CCSc1ccccc1)Nc1nnc(-c2ccccc2)o1	-0.38% (inactive)
COc1cccc(C2CC(c3ccccc3OC)n3nc(N)nc3N2)c1 (stereo unspecified)	-0.495% (inactive)
CSC1=C(C#N)C(c2ccc(C(C)C)cc2)CC(=O)N1 (stereo unspecified)	-4.75% (inactive)
CCCNC(=O)CS(=O)Cc1nc(-c2ccccc2C)oc1C (stereo unspecified)	-14.3% (inactive)
CCCOc1ccc(C(=O)NCCC(=O)NCCCC(=O)OCC)cc1	-14.6% (inactive)
CC1(C)Cc2ccccc2-c2nc(NCCO)n(-c3ccccc3)c(=O)c21	-7.5% (inactive)
CCOC(=O)c1nc2nc(C)cc(=O)n2[nH]1	-14.5% (inactive)
CN(CCCNC(=O)Cn1cc2c(n1)CCCC2)C1CCCCC1	-2.1% (inactive)
COc1cc2c(cc1OC)C(C(=O)Nc1ccc3c(c1)OCCO3)C(c1cccnc1)N(C)C2=O (stereo unspecified)	-4.64% (inactive)
OC1CCN(c2c3c(nc4cc(-c5cccc(F)c5)nn24)CCCC3)CC1	2.2% (inactive)

Now look at this entry.
Problem: Need growth inhibition, item Cc1nnc(SCCn2c(N3CCN(c4ccccc4)CC3)nc3c2c(=O)n(C)c(=O)n3C)s1
Solution: -8.87% (inactive)

====

Let's look at some compounds and their measured viability increase.
Test: viability gain of MRP-1-high H69AR cells under doxorubicin, pilot screen, MRP-1 activator project, CellTiter-Glo, duplicate (AID 807);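 also: compound pretreatment 18-22 h then 72 h combined with doxorubicin; 0% = doxorubicin alone and 100% = vehicle without doxorubicin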
Details: H69AR viability with doxorubicin, CellTiter-Glo luminescence; at 10 µM; stronger effect = higher value
Entry rule: numbers only, all in %.

Some compounds with recorded viability increase:
COMPOUND	SCALE UNIT	viability increase
CCC(C)Sc1nnc(Cc2cc(=O)[nH]c(=O)[nH]2)n1-c1ccc(F)cc1 (stereo not given)	%	-1.78
CCOc1ccc(N(CC(=O)NCc2ccccc2)S(=O)(=O)c2c(C)noc2C)cc1	%	-0.68
O=C(c1ccc(=O)[nH]c1)N(Cc1ccco1)C1(C(=O)NC2CCCCC2)CCCCC1	%	-3.3

Problem: Need viability increase, item CCN(CC)c1ccc(NS(=O)(=O)c2ccc3c(c2)oc(=O)n3C)c(C)c1
Solution: -2.73

Problem: Need viability increase, item CC(C)c1nnc(NC(=O)CN2C(=O)c3ccccc3C2=O)s1
Solution: -1.95

Problem: Need viability increase, item O=C(CCn1c(=O)oc2ccccc21)Nc1ccc2c(c1)OCCO2
Solution: -3.68

Problem: Need viability increase, item NC(=O)CSc1nc2ccccc2n1-c1ccccc1
Solution: -0.83
